- SYSTEM UNDER TEST: SARS-CoV-2 M^pro (Severe acute respiratory syndrome coronavirus 2, UniProt P0DTD1)
- ASSAY NAME: biochemical
- Type: biochemical
- PARTICULARS: compound at 10 μM; FRET assay, 50 nM M^pro; read-out: SARS-CoV-2 M^pro % Inhibition at 10 μM
So basically: inhibition at 10 µM at 70% or higher? That is true. Lower than 70%? That is false.

C=C1C(=O)OC2C1CCC(C)=CCCC1(C)OC21 (single isomer, unassigned; (-)) [(−)-Parthenolide]; false
C=C1CC[C@H]2C(=C)CC[C@H]3C(=C)C(=O)O[C@@H]3[C@@H]12 [Dehydrocostus lactone]; false
CC1=C2C3OC(=O)C(C)C3CCC2(C)C=CC1=O (stereo not drawn) [(−)-α-Santonin]; false

Decide: is the reported value of inhibition at 10 µM for `COC(=O)C1=CO[C@@H](O[C@@H]2O[C@H](CO)[C@@H](O)[C@H](O)[C@H]2O)[C@@H]2[C@@H](C)[C@@H](O)C[C@H]12` equal to or greater than 70%?
false

And the next one, `C=C1C(=O)[C@]23[C@H](O)[C@H]1CC[C@H]2[C@@]12CO[C@]3(O)[C@@H](O)[C@@H]1C(C)(C)CC[C@@H]2O` ?
true

And the next one, `O=c1cc(-c2ccc(O)cc2)oc2cc(O)c(O)c(O)c12` ?
true

And the next one, `COc1ccc2ccc(=O)oc2c1CC=C(C)C` ?
false

And the next one, `O=c1cc(-c2cc(O)c(O)c(O)c2)oc2cc(O)cc(O)c12` ?
true

###

- SYSTEM UNDER TEST: UniProt P0DTD1
- ASSAY NAME: biochemical
- Type: biochemical
- PARTICULARS: compound at 10 μM; FRET assay, 50 nM M^pro; read-out: SARS-CoV-2 M^pro % Inhibition at 10 μM
So basically: inhibition at 10 µM at 7% or higher? That is Satisfied. Lower than 7%? That is Not satisfied.

Sample answers from the record:
O=C1O[C@H]([C@@H](O)CO)C(O)=C1O; Satisfied
O=c1cc(-c2ccc(O)c(O)c2)oc2cc(O)cc(O)c12; Satisfied
C=C1C(=O)O[C@@H]2/C=C(\C)CC/C=C(\C)CC[C@@H]12 [Costunolide]; Satisfied
Oc1cc(O)cc(/C=C/c2ccc(O)c(O)c2)c1; Satisfied
C[C@@H]1O[C@@H](Oc2c(-c3ccc(O)c(O)c3)oc3cc(O)cc(O)c3c2=O)[C@H](O)[C@H](O)[C@H]1O; Not satisfied
CC(C)=CCC[C@]1(C)C=Cc2c(O)c3c(c(CC=C(C)C)c2O1)O[C@]12C(=C[C@@H]4C[C@H]1C(C)(C)O[C@@]2(C/C=C(/C)C(=O)O)C4=O)C3=O; Satisfied

Here's the next entry for you.
Decide: is the reported value of inhibition at 10 µM for `Oc1ccc(/C=C/c2cc(O)cc(O)c2)cc1` equal to or greater than 7%?
Not satisfied

###

- SYSTEM UNDER TEST: UniProtKB P0DTD1
- ASSAY NAME: biochemical
- Type: biochemical
- PARTICULARS: FRET assay, 50 nM M^pro, 10 min preincubation
Each entry below lists one item and its recorded IC50 value.

As a guide, the following entries are already answered.
COc1ccc2ccc(=O)oc2c1CC=C(C)C; > 10 µM
Oc1cc(O)cc(/C=C/c2ccc(O)c(O)c2)c1; 2.03 µM
C[C@@H]1O[C@@H](Oc2c(-c3ccc(O)c(O)c3)oc3cc(O)cc(O)c3c2=O)[C@H](O)[C@H](O)[C@H]1O; > 10 µM
COc1c(O)cc2oc3cc(O)c(CC=C(C)C)c(O)c3c(=O)c2c1CC=C(C)C; 25.1 µM
C=C1C(=O)OC2CC3(C)CCCC(C)C3=CC12 (stereo not shown); > 10 µM

Can you share its IC50? I mean this compound: CCCCCCCCCCC[C@@H](C[C@@H]1OC(=O)[C@H]1CCCCCC)OC(=O)[C@H](CC(C)C)NC=O [Orlistat, reference compound]
> 10 µM

And the next one, `Oc1ccc(/C=C/c2cc(O)cc(O)c2)cc1` ?
> 10 µM

And the next one, CC1=C2C3OC(=O)C(C)C3CCC2(C)C=CC1=O (stereo not drawn) [(−)-α-Santonin] ?
> 10 µM

And the next one, C=C1C(=O)OC2C1CCC(C)=CCCC1(C)OC21 (single isomer, unassigned; (-)) [(−)-Parthenolide] ?
> 10 µM

And the next one, `O=c1c(O)c(-c2ccc(O)c(O)c2)oc2cc(O)ccc12` ?
> 10 µM

And the next one, `CC(C)=CCC[C@]1(C)C=Cc2c(O)c3c(c(CC=C(C)C)c2O1)O[C@]12C(=C[C@@H]4C[C@H]1C(C)(C)O[C@@]2(C/C=C(/C)C(=O)O)C4=O)C3=O` ?
> 10 µM

And the next one, `O=c1cc(-c2ccc(O)c(O)c2)oc2cc(O)cc(O)c12` ?
> 10 µM

And the next one, `O=c1cc(-c2cc(O)c(O)c(O)c2)oc2cc(O)cc(O)c12` ?
7.84 µM

###

- SYSTEM UNDER TEST: SARS-CoV-2 M^pro (Severe acute respiratory syndrome coronavirus 2)
- ASSAY NAME: biochemical
- Format: biochemical
- PARTICULARS: compound at 10 μM; FRET assay, 50 nM M^pro; read-out: SARS-CoV-2 M^pro % Inhibition at 10 μM
MEASURED PROPERTY: inhibition at 10 µM

O=c1c(O)c(-c2cc(O)c(O)c(O)c2)oc2cc(O)ccc12; 86.1%
O=C(/C=C/c1ccc(O)c(O)c1)O[C@H](Cc1ccc(O)c(O)c1)C(=O)O; 50.6%
C=C1C(=O)OC2CC3(C)CCCC(C)C3=CC12 (centres unmarked); 27.6%
O=C(/C=C/c1ccc(O)c(O)c1/C=C/c1ccc(O)c(O)c1)O[C@H](Cc1ccc(O)c(O)c1)C(=O)O; 50.8%

Can you share its inhibition at 10 µM? I mean this molecule: CCCCCCCCCCC[C@@H](C[C@@H]1OC(=O)[C@H]1CCCCCC)OC(=O)[C@H](CC(C)C)NC=O [Orlistat, reference compound]
21%

And the next one, `CCOC1=C(O)C(=O)O[C@@H]1[C@@H](O)CO` ?
24.9%

And the next one, C=C(C)C1CCC2=CC(=O)CC(C)C2(C)C1 (single isomer, unassigned; (+)) [(+)-Nootkaton] ?
32%

And the next one, O=C(OC1Cc2c(O)cc(O)cc2OC1c1cc(O)c(O)c(O)c1)c1cc(O)c(O)c(O)c1 [L-Epigallocatechin gallate] ?
105%

###

- SYSTEM UNDER TEST: SARS-CoV-2 M^pro (Severe acute respiratory syndrome coronavirus 2, UniProt P0DTD1)
- ASSAY NAME: biochemical
- Type: biochemical
- PARTICULARS: FRET assay, 50 nM M^pro, 10 min preincubation
pIC50: −log10 of the molar value.
MEASURED PROPERTY: pIC50

Can you share its pIC50? I mean this compound: C=C1CC[C@H]2C(=C)CC[C@H]3C(=C)C(=O)O[C@@H]3[C@@H]12 [Dehydrocostus lactone]
< 5.00

And the next one, C=C1C(=O)O[C@@H]2/C=C(\C)CC/C=C(\C)CC[C@@H]12 [Costunolide] ?
< 5.00

And the next one, `O=C1O[C@H]([C@@H](O)CO)C(O)=C1O` ?
< 5.00

###

- SYSTEM UNDER TEST: SARS-CoV-2 M^pro (Severe acute respiratory syndrome coronavirus 2)
- ASSAY NAME: biochemical
- Assay type: biochemical
- PARTICULARS: FRET assay, 50 nM M^pro, 10 min preincubation
Each entry below lists one item and its recorded pIC50 value.
Lab note — pIC50 values are minus log10 of concentrations in M.

O=c1c(O)c(-c2cc(O)c(O)c(O)c2)oc2cc(O)ccc12; 6.02

Can you share its pIC50? I mean this compound: `O=C(/C=C/c1ccc(O)c(O)c1)O[C@H](Cc1ccc(O)c(O)c1)C(=O)O`
5.16
